Test system: Fibroblast
Assay Method Text: Multiplex assay against human fibroblast
Type: toxicity, cell-based
Stated Conditions: 48 h, 1 µM, compound concentration 1 uM, replicate 2
Rule: Population Pyknosed Nuclei (%) of 3% or more gives 1.0; anything lower gives 0.0.

Exercise: Could you tell me if the measured Population Pyknosed Nuclei (%) of CCN1CCN(Cc2ccc(Nc3ncc(F)c(-c4cc(F)c5nc(C)n(C(C)C)c5c4)n3)nc2)CC1.CS(=O)(=O)O reaches 3% or more?
Key: 0.0

Exercise: Try this molecule too: C=C1/C(=C\C=C2/CCC[C@]3(C)[C@@H]([C@H](C)/C=C/[C@H](C)C(C)C)CC[C@@H]23)C[C@@H](O)C[C@@H]1O [DOXERCALCIFEROL]
Key: 0.0

Exercise: Also Cl.Oc1ccc2c3c1O[C@H]1c4[nH]c5c(c4C[C@@]4(O)[C@@H](C2)N(CC2CC2)CC[C@]314)C[C@@]1(O)[C@H]2Cc3ccc(O)c4c3[C@@]1(CCN2CC1CC1)[C@H]5O4 , if possible.
Key: 1.0

Exercise: Next: CCc1cccc(CC)c1NC(=O)c1nn(C)c2c1CCc1cnc(Nc3ccc(C(=O)NC4CCN(C)CC4)cc3OC(F)(F)F)nc1-2
Key: 1.0

Exercise: One more molecule: COc1cc(N2CCN(C)CC2)ccc1Nc1ncc2c(n1)N(C)c1ccccc1C(=O)N2C
Key: 0.0

Exercise: Quick one: S=C(NCCCc1c[nH]cn1)NCCCN(Cc1ccc(Cl)c(Cl)c1)c1ccc(Br)cn1
Key: 0.0

Exercise: // same read-out, input: Cc1cn(-c2cc(NC(=O)c3ccc(C)c(Nc4nccc(-c5cccnc5)n4)c3)cc(C(F)(F)F)c2)cn1 [NILOTINIB]
Key: 0.0

Exercise: // same read-out, input: O=C1NC(=O)C(c2cnc3ccccn23)=C1c1cn2c3c(cc(F)cc13)CN(C(=O)N1CCCCC1)CC2 [LY-2090314]
Key: 1.0

Exercise: // same read-out, input: Cc1cc(C)c(S(=O)(=O)N(Cc2ccc(-c3cccc(S(C)(=O)=O)c3)cc2)Cc2ccc(C(F)(F)F)o2)c(C)c1
Key: 0.0

Exercise: Moving on to the next molecule: O=C1N/C(=N/c2ccccc2F)S/C1=C\c1ccc(C(=O)O)cc1
Key: 0.0

Exercise: Now consider Cc1ccc(C(=O)Nc2cccc(C(F)(F)F)c2)cc1Nc1nc(-c2cccnc2)nc2c1cnn2C and answer again.
Key: 0.0

====

System: Fibroblast
Assay Method Text: Multiplex assay against human fibroblast
Format: toxicity, cell-based
Stated Conditions: 12 h, 10 µM, compound concentration 10 uM, replicate 1
Recorded Endpoint: Population Normal (%)
Output spec: scalar in %, unitless text.

Exercise: Recorded Population Normal (%) for CNc1cc(Oc2cc(C(=O)Nc3cc(N4CCN(C)CC4)cc(C(F)(F)F)c3)ccc2C)ncn1 , please?
Key: 81

Exercise: Please answer likewise for COc1cc(N2CCN(C)CC2)ccc1Nc1ncc2c(n1)N(C)c1ccccc1C(=O)N2C
Key: 79

Exercise: Entry to check: S=C(NCCCc1c[nH]cn1)NCCCN(Cc1ccc(Cl)c(Cl)c1)c1ccc(Br)cn1
Key: 79

Exercise: Please give the result for CCOc1cc(C(=O)N2CCC(N3CCN(C)CC3)CC2)ccc1Nc1ncc2c(n1)N(C1CCCC1)c1ccccc1C(=O)N2C too.
Key: 80

Exercise: Repeat for the following compound: CCc1cccc(CC)c1NC(=O)c1nn(C)c2c1CCc1cnc(Nc3ccc(C(=O)NC4CCN(C)CC4)cc3OC(F)(F)F)nc1-2
Key: 78

Exercise: Continue with CCN1CCN(Cc2ccc(Nc3ncc(F)c(-c4cc(F)c5nc(C)n(C(C)C)c5c4)n3)nc2)CC1.CS(=O)(=O)O
Key: 82

Exercise: Ok, now Cc1ccc2nc(NCCN)c3ncc(C)n3c2c1.O=C(O)C(F)(F)F.O=C(O)C(F)(F)F
Key: 78

====

Test system: Fibroblast
Assay Method Text: Multiplex assay against human fibroblast
Type: toxicity, cell-based
Stated Conditions: 12 h, 1 µM, compound concentration 1 uM, replicate 2
Recorded Endpoint: Population Membrane Permeable-Phenotype (%)
Use % as the unit, but write only the number.

Exercise: Item: COc1cccc2cc(-c3nc([C@H]4CC[C@H](C(=O)O)CC4)n4ncnc(N)c34)[nH]c12 Test system: Fibroblast Read-out: Population Membrane Permeable-Phenotype (%) Value: ?
Key: 25

Exercise: Continue with CCCS(=O)(=O)c1nc(NC2CC2)cc(-c2ccc3c(ccn3C3CC(C)(C)NC(C)(C)C3)c2)n1
Key: 5

Exercise: Try this compound next: C=C1/C(=C\C=C2/CCC[C@]3(C)[C@@H]([C@H](C)/C=C/[C@H](C)C(C)C)CC[C@@H]23)C[C@@H](O)C[C@@H]1O
Key: 5

Exercise: Check CCCS(=O)(=O)Nc1ccc(F)c(C(=O)c2c[nH]c3ncc(Cl)cc23)c1F too.
Key: 22

====

Test system: Fibroblast
Assay Method Text: Multiplex assay against human fibroblast
Type: toxicity, cell-based
Stated Conditions: 12 h, 1 µM, compound concentration 1 uM, replicate 2
Provide the recorded Population Hoechst High Intensity Objects (%) for the entries that follow.
Return type: number; implicit unit %.

Exercise: Item under review: Cl.O=c1c2cccn2c2ccccc2n1CCCN1CCC(c2ccc(Cl)cc2)CC1 . Reported Population Hoechst High Intensity Objects (%)?
Key: 8

Exercise: Now the compound CCNc1cc(N[C@H]2CC[C@H](O)CC2)nc(Nc2ccc3c(ccn3Cc3ccccc3)c2)n1
Key: 50

Exercise: Next up: CCN1CCN(c2ccc(Nc3cc(N(C)C(=O)Nc4c(Cl)c(OC)cc(OC)c4Cl)ncn3)cc2)CC1
Key: 38

Exercise: Next up: CNC(=O)c1ccc(Nc2nc(OC3CCCC3)c3c(-c4ccc5nc(C)oc5c4)c[nH]c3n2)c(OC)c1
Key: 33

====

Test system: HEK-293T
Assay Method Text: Multiplex assay against HEK293T;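 also: share of the cells with healthy nuclei that show this phenotype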
Assay type: toxicity, cell-based
Stated Conditions: human, 24 h, 10 µM, compound concentration 10 uM, replicate 2
Recorded Endpoint: Population Tubulin-Different-Phenotype (%)
Answer format: numeric, % implied, no suffix.

Exercise: # get_value(readout= Population Tubulin-Different-Phenotype (%), system= HEK-293T) for C=C1/C(=C\C=C2/CCC[C@]3(C)[C@@H]([C@H](C)/C=C/[C@H](C)C(C)C)CC[C@@H]23)C[C@@H](O)C[C@@H]1O
Key: 37

Exercise: Field entry: COc1cc2ncnc(Nc3ccc(F)c(Cl)c3)c2cc1NC(=O)/C=C/CN1CCCCC1 [DACOMITINIB ANHYDROUS]
Key: 5

Exercise: Try this compound next: COCC(=O)NC/C=C/c1ccc2ncnc(Nc3ccc(Oc4ccc(C)nc4)c(C)c3)c2c1
Key: 95

Exercise: Ok, now CCc1cccc(CC)c1NC(=O)c1nn(C)c2c1CCc1cnc(Nc3ccc(C(=O)NC4CCN(C)CC4)cc3OC(F)(F)F)nc1-2
Key: 91

Exercise: And the next one, O=C(Nc1ccc(-n2nc(-c3cccnc3)cc2C(F)(F)F)cn1)c1ccc(-c2ccccc2)c(F)c1 ?
Key: 23

Exercise: Now the same for Cc1cn(-c2cc(NC(=O)c3ccc(C)c(Nc4nccc(-c5cccnc5)n4)c3)cc(C(F)(F)F)c2)cn1
Key: 85

Exercise: Next compound: CCOc1cc2ncc(C#N)c(Nc3ccc(OCc4ccccn4)c(Cl)c3)c2cc1NC(=O)/C=C/CN(C)C
Key: 14

Exercise: // same read-out, input: COc1ccc(-c2ccc3c(N4CCOCC4)nc(N4C[C@@H](C)O[C@@H](C)C4)nc3n2)cc1CO
Key: 32

Exercise: Field entry: O=C(Nc1cccnn1)N1CCC(=Cc2cccc(Oc3ccc(C(F)(F)F)cn3)c2)CC1
Key: 8

Exercise: Also CCCn1c(=O)c2[nH]c(-c3cnn(Cc4cccc(C(F)(F)F)c4)c3)nc2n(CC)c1=O ?
Key: 35

Exercise: Entry to check: O=C1NC(=O)C(c2cnc3ccccn23)=C1c1cn2c3c(cc(F)cc13)CN(C(=O)N1CCCCC1)CC2
Key: 95

Exercise: Lookup COc1cc(N2CCN(C)CC2)ccc1Nc1ncc2c(n1)N(C)c1ccccc1C(=O)N2C
Key: 97

Exercise: Okay, and COc1ccc(S(=O)(=O)N(CCO)c2ccccc2CN(C)C/C=C/c2ccc(Cl)cc2)cc1.O=P(O)(O)O ?
Key: 37

Exercise: Also need Cl.O=c1c2cccn2c2ccccc2n1CCCN1CCC(c2ccc(Cl)cc2)CC1 , thanks.
Key: 67

Exercise: Same lookup for O=C(Nc1ccc(Cl)cc1)Nc1cccc(-c2cccc(N3CCCC3)n2)c1 , please.
Key: 56

Exercise: Further, for CN(C)C(=O)C(CCN1CCC(O)(c2ccc(Cl)cc2)CC1)(c1ccccc1)c1ccccc1.Cl [LOPERAMIDE HYDROCHLORIDE] ?
Key: 75

Exercise: Again, but for CCOc1cc(C(=O)N2CCC(N3CCN(C)CC3)CC2)ccc1Nc1ncc2c(n1)N(C1CCCC1)c1ccccc1C(=O)N2C
Key: 21

Exercise: Moving on to NC(=O)c1cccc(-c2cc(Nc3ccc(OC(F)(F)F)cc3)ncn2)c1
Key: 11

Exercise: Next record, please: O=C(Nc1ccc(-c2ccnc(Nc3ccc(N4CCOCC4)cc3)n2)cc1)[C@@H]1CCCN1
Key: 88

Exercise: Try S=C(NCCCc1c[nH]cn1)NCCCN(Cc1ccc(Cl)c(Cl)c1)c1ccc(Br)cn1 next.
Key: 100

Exercise: Entry to check: C=CCn1c(=O)c2cnc(Nc3ccc(N4CCN(C)CC4)cc3)nc2n1-c1cccc(C(C)(C)O)n1
Key: 80

Exercise: Also CN1C2CCC1CC(OC(c1ccc(F)cc1)c1ccc(F)cc1)C2.Cl (centres undefined) ?
Key: 86

Exercise: Another compound: CCc1cccc(CC)c1NC(=O)c1nn(C)c2c1CCc1cnc(Nc3ccc(N4CCN(C)CC4)cc3OC)nc1-2
Key: 62

Exercise: Param item: CCCS(=O)(=O)c1nc(NC2CC2)cc(-c2ccc3c(ccn3C3CC(C)(C)NC(C)(C)C3)c2)n1
Key: 88
